Reported pKi by item:
Target: T1, human plasma kallikrein (PKal) (human, UniProt P03952 20-638)
T1 construct: Active PKal is cleaved at the marked R/I site into two disulfide-linked chains; also called human Pkal; active PKal
T1 sequence (P03952 20-638 limits assumed): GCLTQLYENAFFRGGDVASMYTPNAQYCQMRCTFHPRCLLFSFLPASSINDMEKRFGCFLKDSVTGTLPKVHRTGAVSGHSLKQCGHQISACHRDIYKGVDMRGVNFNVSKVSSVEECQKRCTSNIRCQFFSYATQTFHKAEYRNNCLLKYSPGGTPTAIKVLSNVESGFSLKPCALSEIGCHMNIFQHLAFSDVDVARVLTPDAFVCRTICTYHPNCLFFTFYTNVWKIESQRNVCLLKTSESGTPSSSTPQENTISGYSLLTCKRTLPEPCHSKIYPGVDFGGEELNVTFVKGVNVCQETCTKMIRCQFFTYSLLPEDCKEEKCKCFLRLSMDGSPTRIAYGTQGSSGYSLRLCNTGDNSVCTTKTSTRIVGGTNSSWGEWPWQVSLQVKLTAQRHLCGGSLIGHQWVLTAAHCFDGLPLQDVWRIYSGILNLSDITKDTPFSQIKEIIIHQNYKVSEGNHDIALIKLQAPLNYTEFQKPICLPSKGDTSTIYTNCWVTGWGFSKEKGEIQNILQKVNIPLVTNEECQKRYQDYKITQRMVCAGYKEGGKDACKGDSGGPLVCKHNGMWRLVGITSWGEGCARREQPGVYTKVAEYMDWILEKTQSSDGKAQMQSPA
Assay: Ki,app; Fab inhibition of PKal cleavage of a substrate peptide, Morrison fit
# pKi: negative log10 of molar concentration; output just the value

The examples below pair each entry with its known result.
M0202-A08 (Fab, V domains shown) VH: EVQLLESGGGLVQPGGSLRLSCAASGFTFSHYIMMWVRQAPGKGLEWVSGIYSSGGITVYADSVKGRFTISRDNSKNTLYLQMNSLRAEDTAVYYCAYRRTGIPRWDAFDIWGQGTMVTVSS VL: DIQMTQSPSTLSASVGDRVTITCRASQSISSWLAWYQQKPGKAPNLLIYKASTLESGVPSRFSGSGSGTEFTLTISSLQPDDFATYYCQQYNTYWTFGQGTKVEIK :: 8.55
M0202-H05 (Fab, V domains shown, HC CDR3 variant of M0162-A04, tested as Fab) VH: EVQLLESGGGLVQPGGSLRLSCAASGFTFSHYIMMWVRQAPGKGLEWVSGIYSSGGITVYADSVKGRFTISRDNSKNTLYLQMNSLRAEDTAVYYCAYRRTGVPRRDVFDIWGQGTMVTVSS VL: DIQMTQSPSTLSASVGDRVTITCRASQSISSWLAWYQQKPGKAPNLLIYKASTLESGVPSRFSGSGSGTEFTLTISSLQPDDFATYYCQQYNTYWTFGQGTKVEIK :: 9.59

Now take the following binder into account.
Kindly note the recorded pKi for M0202-G03 (Fab, V domains shown, HC CDR3 variant of M0162-A04, tested as Fab) VH: EVQLLESGGGLVQPGGSLRLSCAASGFTFSHYIMMWVRQAPGKGLEWVSGIYSSGGITVYADSVKGRFTISRDNSKNTLYLQMNSLRAEDTAVYYCAYRRTGVPRRDSFEIWGQGTMVTVSS VL: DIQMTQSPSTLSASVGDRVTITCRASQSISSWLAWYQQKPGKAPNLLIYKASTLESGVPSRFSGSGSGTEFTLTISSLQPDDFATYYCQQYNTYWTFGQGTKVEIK , which is 9.40

Data credit: patent US20150274841A1
